System: EpiSC-derived OPCs
Assay: In vitro phenotypic screening of OPCs (MBP high-content imaging)
Assay type: cell-based
Conditions: Mus musculus, 72 h; percentage of MBP-positive oligodendrocytes, 3 days, 0.5 nM to 1000 nM; read-out: OPC EC50
pEC50: −log10 of the molar value.
Decide by pEC50: equal to or exceeding 7 means t, less means f.

Consider the worked cases shown below.
                                   molecule                 tgt  assigned_category
0  CC(C)n1nc(-c2cncc(C(F)(F)F)c2)cc1[C@H]1[C@@H]2C[C@@H](N3CCC4(C3)CS(=O)(=O)C4)C[C@@H]21 (single isomer, unassigned)  EpiSC-derived OPCs                  t
1  CCn1nc(-c2ccnc(C(F)(F)F)c2)cc1[C@H]1[C@@H]2C[C@H](N3CCC4(C3)CS(=O)(=O)C4)C[C@@H]21  EpiSC-derived OPCs                  t
2  CC(C)n1nc(-c2cc(C(F)(F)F)ccn2)cc1[C@H]1[C@@H]2C[C@H](N3CCC4(C3)CS(=O)(=O)C4)C[C@@H]21 (single isomer, unassigned)  EpiSC-derived OPCs                  t
3  O=S1(=O)CC2(CCN([C@@H]3C[C@@H]4[C@H](C3)[C@H]4c3cc(C(F)(F)F)nn3CC(F)F)C2)C1 (single isomer, unassigned)  EpiSC-derived OPCs                  f

Now look at this one.
Say whether O=S1(=O)CC2(CCN([C@@H]3C[C@@H]4[C@H](C3)[C@H]4c3cc(C(F)(F)F)nn3CC(F)F)CC2)C1 (single isomer, unassigned) shows pEC50 of 7 or more.
t
